Test system: E. coli B6054
Experiment: Capture on magnetic microbeads coated with pepβ2GPI: H61 E. coli B6054
Format: binding
The substances listed here are annotated with their Capture of H61 E. coli B6054.
Give a bare numeral; the unit % is implied.

# input Give the value of Capture of H61 E. coli B6054 reported for the following: H-((SSLAFWK)2-K)2-K—NH2 [Peptide P11]
# output 90

# input Supply Capture of H61 E. coli B6054 value. Item: CKNKEKKC [Peptide P2]
# output 104

# input Annotate the substance SSLAFWK [Peptide P1] with its measured Capture of H61 E. coli B6054.
# output 71

# input Report Capture of H61 E. coli B6054 for H-(SSLAFWK)2-K—NH2 [Peptide P10]
# output 79

# input Complete the entry with Capture of H61 E. coli B6054 for CKNKEKKCGGSSLAFWK [Peptide P4]
# output 85

# input Let me know recorded Capture of H61 E. coli B6054 for CKNKEKKC [Peptide P3] , thanks.
# output 88

----------
Test system: ISAV virus (Infectious salmon anemia virus)
Test: Capture of ISAV virus on magnetic microbeads coated with pepβ2GPI, RT-PCR quantification
Format: binding
Settings: virus captured on coated beads from culture supernatant
measured quantity: ISAV copies

Sample records with ISAV copies:
H-(SSLAFWK)2-K—NH2 [Peptide P10]: 58 400 copies
CKNKEKKC [Peptide P2]: 62 700 copies
SSLAFWK [Peptide P1]: 72 300 copies
CKNKEKKC [Peptide P3]: 65 550 copies
H-((SSLAFWK)2-K)2-K—NH2 [Peptide P11]: 78 350 copies

# input Report ISAV copies, nothing else, for this substance: CKNKEKKCGGSSLAFWK [Peptide P4]
# output 61 150 copies

----------
In this section we review reported Capture of C3 E. coli ATCC 11105 values for a set of substances.
System: E. coli ATCC 11105
Assay: Capture on magnetic microbeads coated with pepβ2GPI: C3 E. coli ATCC 11105
Format: binding
Please state the figure in %; there is no need to write the unit.

Check out these entries, answers already filled in.
CKNKEKKC [Peptide P2]: 30
CKNKEKKC [Peptide P3]: 42
H-((SSLAFWK)2-K)2-K—NH2 [Peptide P11]: 43
H-(SSLAFWK)2-K—NH2 [Peptide P10]: 45
CKNKEKKCGGSSLAFWK [Peptide P4]: 26

# input Please report the measured Capture of C3 E. coli ATCC 11105 for SSLAFWK [Peptide P1]
# output 30
